Test system: P. falciparum stage V gametocytes
Design: BacTiter-Glo ATP luminescence viability of purified stage V gametocytes in 384-well plates, per cent inhibition versus DMSO
details: 48 h, 5 µM; inhibitor
About 3,200 (25%) of roughly 13,000 compounds showed an effect of 50% or more. This is one part of the list.
measured-endpoint: % Inhibition (%)

>>> readout_number("COc1cc(C(=O)NCCCN2CCN(c3cccc(Cl)c3)CC2)ccc1-c1cc2cc(Cl)c(Cl)cc2[nH]1")
6.24
>>> readout_number("NC(N)=NCC=C(c1ccccc1)c1ccccc1")
51.32
>>> readout_number("CN1CCC(Oc2ccc(CN3CC[C@H](NC(=O)c4ccc(F)c(F)c4)C3)c3ccccc23)C1 (stereo partly shown)")
72.64
>>> readout_number("Cc1cccc(NC(=O)c2cnc(N3CCN(c4ccncc4)CC3)c(Cl)c2)c1")
39.85
